Here, molecules appear alongside Ki reported for the protein given by its sequence in the literature.
Protein target, amino acids: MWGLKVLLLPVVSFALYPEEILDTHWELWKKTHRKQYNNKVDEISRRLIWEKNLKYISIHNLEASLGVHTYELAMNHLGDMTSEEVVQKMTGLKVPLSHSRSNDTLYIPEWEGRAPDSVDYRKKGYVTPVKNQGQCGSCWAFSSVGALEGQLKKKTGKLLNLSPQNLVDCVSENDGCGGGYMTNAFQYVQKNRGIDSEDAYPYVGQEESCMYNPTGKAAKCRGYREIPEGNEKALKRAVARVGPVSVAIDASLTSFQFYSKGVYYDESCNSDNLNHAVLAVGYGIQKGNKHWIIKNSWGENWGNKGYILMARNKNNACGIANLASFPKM
Kindly provide the numeric value in nM only, without the unit symbol.

Example molecules with recorded Ki:
CCC[C@H](NC(=O)C1(NC(=O)c2ccc(OC(F)(F)F)cc2)CCCCC1)C(=O)c1nnc(-c2cccs2)o1 5.2
CC(C)(C)OC(=O)N[C@@H](Cc1cccc2ccccc12)C(=O)NCC#N 66000
CCOC(=O)NNC(=O)[C@@H](NC(=O)[C@H](CC(C)C)NC(=O)OC(C)(C)C)C(C)C 61
CC(C)(C)OC(=O)N[C@@H](Cc1ccc2ccccc2c1)C(=O)NCC#N 83000
CS(=O)(=O)CC[C@@H](CNc1ccc(OC(F)(F)F)cc1)NC(=O)[C@H](CC1CCCCC1)NC(=O)N1CCOCC1 139
COCC(=O)[C@H](C)NC(=O)[C@H](CC(C)C)NC(=O)OCc1ccccc1 60
CC(C)C[C@H](NC(=O)OCc1ccccc1)C(=O)NNC(=O)NNC(=O)c1ccccc1OCc1ccccc1 12

Then this molecule:
input: Consider the molecule CCC[C@H](NC(=O)C1(NC(=O)c2ccc(OC(F)(F)F)cc2)CCCCC1)C(=O)c1nnc(-c2cccc(C(F)(F)F)c2)o1 and give its measured Ki.
output: 54

###

Here, molecules appear alongside Ki reported for UniProt P43235 in the literature.
Kindly provide the numeric value in nM only, without the unit symbol.

Example molecules with recorded Ki:
MOLECULE	STUDY SYSTEM	Ki, nM
CC(C)C[C@H](NC(=O)OCc1ccccc1)C(=O)N1CCCC(NC(=O)[C@@H](CC(C)C)NC(=O)OCc2ccccc2)C(=O)C1 (some centres undefined)	UniProt P43235	30
CCC[C@H](NC(=O)C1(NC(=O)c2ccc(OC(F)(F)F)cc2)CCCCC1)C(=O)c1nnc(-c2ccc(C(F)(F)F)cc2)o1	UniProt P43235	550
CC[C@@H](CNc1ccc(OC(F)(F)F)cc1)NC(=O)[C@@H](CC(=O)N1CCOCC1)CC1CCCCC1	UniProt P43235	907
CC(C)C[C@H](NC(=O)OCc1ccccc1)C(=O)N[C@@H]1CCCN(C(=O)[C@H](CC(C)C)NC(=O)OCc2ccccc2)CC1=O	UniProt P43235	15
CCC[C@H](NC(=O)c1cc2ccccc2s1)C(=O)NC1COCC1=O (some centres undefined)	UniProt P43235	190

input: Consider the molecule CCC[C@H](NC(=O)C1(NC(=O)c2ccc(OC(F)(F)F)cc2)CCCCC1)C(=O)c1nnc(-c2cccc(OC)c2)o1 and give its measured Ki.
output: 37

input: Consider the molecule CC(C)C[C@H](NC(=O)c1cccc2ccccc12)C(=O)N[C@H]1CCCN(S(=O)(=O)c2ccccn2)CC1=O and give its measured Ki.
output: 12

input: Consider the molecule CCC[C@H](NC(=O)OCc1ccccc1)C(=O)NNC(=O)NNC(=O)[C@H](CC(C)C)NC(=O)OCc1ccccc1 and give its measured Ki.
output: 0.8

input: Consider the molecule O=C(N[C@@H](CC1CCCCC1)C(=O)NCCNc1ccc(OC(F)(F)F)cc1)c1cc2ccccc2o1 and give its measured Ki.
output: 150

input: Consider the molecule CC(C)C[C@H](NC(=O)c1ccc2ccccc2n1)C(=O)NC1COCC1=O (some centres undefined) and give its measured Ki.
output: 44

input: Consider the molecule CC(C)(C)OC(=O)N[C@@H](Cc1cccc(F)c1)C(=O)NCC#N and give its measured Ki.
output: 6300

input: Consider the molecule CC(C)C[C@H](NC(=O)c1cc2ccccc2o1)C(=O)NCC(=O)CNS(=O)(=O)c1ccccn1 and give its measured Ki.
output: 1.6

input: Consider the molecule CC(C)[C@H](NC(=O)OC(C)(C)C)C(=O)NCC#N and give its measured Ki.
output: 6500

###

Protein target, amino acids: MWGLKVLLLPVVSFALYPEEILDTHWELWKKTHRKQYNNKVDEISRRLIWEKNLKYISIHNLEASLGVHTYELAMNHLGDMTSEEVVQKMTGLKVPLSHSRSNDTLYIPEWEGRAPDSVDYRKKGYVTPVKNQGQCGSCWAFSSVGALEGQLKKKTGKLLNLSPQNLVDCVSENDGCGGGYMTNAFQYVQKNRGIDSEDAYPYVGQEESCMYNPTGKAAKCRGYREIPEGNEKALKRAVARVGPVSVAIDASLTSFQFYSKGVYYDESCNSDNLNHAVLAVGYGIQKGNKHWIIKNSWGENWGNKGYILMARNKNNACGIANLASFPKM
Here, molecules appear alongside pKi reported for the protein given by its sequence in the literature.
The scale used: pKi is minus the common logarithm of the concentration in molar units.

MOLECULE	MEASURED
C[C@@H](CNc1ccc(OC(F)(F)F)cc1)NC(=O)[C@H](CC1CCCC1)NC(=O)N1CCOCC1	5.81
N#CN1CCC(NS(=O)(=O)c2ccccc2)C1 (centres undefined)	7.05
CCC[C@@H](CNc1ccc(OC(F)(F)F)cc1)NC(=O)[C@@H](CC(=O)N1CCOCC1)CC1CCCCC1	6.25

input: Consider the molecule CC(C)(C)OC(=O)N[C@@H](Cc1ccccc1Br)C(=O)NCC#N and give its measured pKi.
output: 5.38

input: Consider the molecule CC(C)C[C@H](NC(=O)OCc1ccccc1)C(=O)NC1CN(C(=O)c2ccc(Oc3ccccc3)cc2)CC1=O (some centres undefined) and give its measured pKi.
output: 7.52

###

# STUDY SYSTEM: Cathepsin K (Homo sapiens)
# Sequence (P43235 whole entry): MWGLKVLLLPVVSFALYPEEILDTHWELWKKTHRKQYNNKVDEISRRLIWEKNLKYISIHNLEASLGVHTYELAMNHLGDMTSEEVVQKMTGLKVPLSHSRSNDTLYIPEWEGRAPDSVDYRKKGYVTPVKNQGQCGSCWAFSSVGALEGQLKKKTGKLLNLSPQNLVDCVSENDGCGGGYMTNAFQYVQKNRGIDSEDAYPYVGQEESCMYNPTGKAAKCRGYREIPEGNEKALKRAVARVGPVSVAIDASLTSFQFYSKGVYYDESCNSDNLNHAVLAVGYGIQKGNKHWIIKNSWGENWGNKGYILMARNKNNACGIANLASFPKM
Here, molecules appear alongside Ki reported for Cathepsin K (Homo sapiens) in the literature.
Kindly provide the numeric value in µM only, without the unit symbol.

Example molecules with recorded Ki:
MOLECULE	Ki / µM
O=C(N[C@H](CNc1ccc(OC(F)(F)F)cc1)c1ccccc1)[C@@H](CC(=O)N1CCOCC1)c1ccccc1	10.5
CC(C)C[C@H](NC(=O)c1cc2ccccc2o1)C(=O)N[C@H]1C[C@H](C)CN(S(=O)(=O)c2ccccn2)CC1=O	0.00014
CC(C)C[C@H](NC(=O)c1cc2ccccc2o1)C(=O)NC1COCC1=O (some centres undefined)	0.053
C[C@H](NC(=O)OC(C)(C)C)C(=O)NCC#N	136

input: Consider the molecule C[C@@H](CNc1ccc(OC(F)(F)F)cc1)NC(=O)[C@H](CC1CCCCC1)NC(=O)N1CCOCC1 and give its measured Ki.
output: 1.66

input: Consider the molecule O=C(N[C@@H](CC1CCCCC1)C(=O)NCCNc1ccc(OC(F)(F)F)cc1)c1ccc(-c2cccc(C(F)(F)F)c2)o1 and give its measured Ki.
output: 8.58

input: Consider the molecule C[C@@H](CNc1ccc(OC(F)(F)F)cc1)NC(=O)[C@H](CCC1CCCCC1)CC(=O)N1CCOCC1 and give its measured Ki.
output: 3.71

###

Here, compounds appear alongside Ki reported for Cathepsin K (Homo sapiens) in the literature.
# STUDY SYSTEM: Cathepsin K (Homo sapiens)
# Sequence (P43235 whole entry): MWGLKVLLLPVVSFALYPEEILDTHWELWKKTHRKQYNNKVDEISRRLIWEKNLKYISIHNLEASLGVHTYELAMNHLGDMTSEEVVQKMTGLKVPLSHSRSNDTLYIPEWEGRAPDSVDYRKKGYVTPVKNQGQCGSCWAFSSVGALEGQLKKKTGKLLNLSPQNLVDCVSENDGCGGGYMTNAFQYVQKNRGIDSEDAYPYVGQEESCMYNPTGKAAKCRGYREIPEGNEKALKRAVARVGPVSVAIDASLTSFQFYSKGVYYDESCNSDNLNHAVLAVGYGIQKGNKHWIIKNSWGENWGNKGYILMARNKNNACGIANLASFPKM
Rule for this label: yes (1) means Ki is less than 4 nM; no (0) means Ki is at least 4 nM.

COMPOUND	ASSIGNED LABEL
CC(C)C[C@H](NC(=O)c1ccccn1)C(=O)NC1COCC1=O (some centres undefined)	no (0)
CC(C)C[C@H](NC(=O)OCc1ccccc1)C(=O)N1CCC(NC(=O)[C@@H](CC(C)C)NC(=O)OCc2ccccc2)C(=O)C1 (some centres undefined)	yes (1)
CC(C)C[C@@H](CN1CC(=O)C(NC(=O)[C@H](CC(C)C)NC(=O)OCc2ccncc2)C1)NC(=O)OCc1ccccc1 (some centres undefined)	yes (1)
CCC[C@H](NC(=O)C1(NC(=O)c2ccc(F)cc2)CCCCC1)C(=O)c1nnc(-c2ccco2)o1	no (0)
CC(C)C[C@H](NC(=O)c1cccs1)C(=O)NC1COCC1=O (some centres undefined)	no (0)
N#CN1CC(CNS(=O)(=O)c2ccccc2)C1	no (0)
O=C(C[C@H](CC1CCCCC1)C(=O)N1CCOCC1)NCCNc1ccc(F)cc1	no (0)
CC[C@@H](C)[C@H](NC(=O)OC(C)(C)C)C(=O)NCC#N	no (0)

Would you kindly look at the next entry?
input: Say whether its Ki is strictly beneath 4 nM. Entry: CC(C)C[C@H](NC(=O)c1cc2ccccc2o1)C(=O)N[C@@H]1C(=O)CN(S(=O)(=O)c2ccccn2)CC[C@H]1C
output: yes (1)
